All figures here come from patent US20220073609A1.

# testTarget: T1, sTREM2 in cynomolgus CSF (cynomolgus monkey, UniProt A0A2K5UY34 49-187)
# T1 construct: domain: soluble TREM2 (sTREM2); also called soluble TREM2 in healthy cynomolgus monkey CSF
# T1 sequence: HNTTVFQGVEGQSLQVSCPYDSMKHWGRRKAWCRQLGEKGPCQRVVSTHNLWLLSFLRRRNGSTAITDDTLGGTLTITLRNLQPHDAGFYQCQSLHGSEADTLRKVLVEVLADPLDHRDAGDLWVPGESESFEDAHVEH
# experimentalDetails: MSD assay, sTREM2 from CSF captured by biotinylated goat anti-human TREM2, sulfo-tagged test antibody titrated
measureName: EC50 (nM)
Use nM as the unit, but write only the number.

Entry under test: CL0020123-7 (antibody, V domains shown, Humanized variant of CL0020123) VH: QVQLVQSGAEVKKPGASVKVSCKASGFSIEDFYIHWVRQAPGQGLEWMGWIDPENGESKYAPKFQGRVTITADTSTSTAYMELSSLRSEDTAVYYCHADHGNYGSTMDYWGQGTLVTVSS VL: DIQMTQSPSSLSASVGDRVTITCHASQHINVWLSWYQQKPGKAPKLLIYKASNLHTGVPSRFSGSGSGTDFTLTISSLQPEDFATYYCQQGQTYPRTFGQGTKVEIK . Its EC50 was 16.9
